Data credit: the supplement of paper PMC10567573

B1: SCNN1D (parent)
chain: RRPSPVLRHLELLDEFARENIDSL

# Variants of: B1
# Assay: protein stability index of a GFP-peptide fusion (GPS, HEK-293T) (PSI 1-6); higher = more stable;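 also: lentivirally expressed fusions sorted by FACS into six bins by GFP to DsRed ratio, PSI derived from sequencing read proportions per bin multiplied by bin number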
# Test conditions: c terminus: a fixed tail appended
Reported protein stability index values are given for each entry in this list.
Just the number, please, no unit attached.

- Sequence chain: "RRPSPVLRHLELTDEFARENIDSL [L13T]"
  protein stability index: 4.13

IN: Name the recorded protein stability index for RRPSPDLRHLELLDEFARENIDSL [V6D] .
OUT: 4.09

IN: Same again, this time with RRYSPVLRHLELLDEFARENIDSL [P3Y]
OUT: 2.31
